Molecular target: angiotensin converting enzyme (ACE) (Oryctolagus cuniculus)
Construct: resulting supernatant was purified with hydroxyapatite to obtain 1 unit/mg protein of angiotensin converting enzyme liquid; tissue Sigma Co., Ltd. (alternative source); host or cells: rabbit lung (acetone powder extract purified with hydroxyapatite)
Assay: ACE inhibitory activity (Test Example 1, Cheung and Cushman's method, hippuryl histidyl leucine substrate)
Format: biochemical, rabbit
Conditions: contribution of each dipeptide in KATSUOBUSHI peptide
Where a SMILES comes first, the peptide text is derived from it.
MEASURED_METRIC: The contribution rate in KATSUOBUSHI peptide (%)

CC(C)[C@H](N)C(=O)N[C@@H](Cc1c[nH]c2ccccc12)C(=O)O [Valine-tryptophan, valine-tryptophan] (H-Val-Trp-OH): 4.031

A. N[C@@H](Cc1c[nH]c2ccccc12)C(=O)N[C@@H](Cc1ccc(O)cc1)C(=O)O [Tryptophan-tyrosine, tryptophan-tyrosine] (H-Trp-Tyr-OH; N-terminus and C-terminus assumed)
B. C[C@H](N)C(=O)N[C@@H](Cc1c[nH]c2ccccc12)C(=O)O [Alanine-tryptophan, alanine-tryptophan] (H-Ala-Trp-OH; N-terminus and C-terminus assumed)
[in] Smaller The contribution rate in KATSUOBUSHI peptide value, A vs B ? Please indicate the selected item by its label.
[out] A

a. NCC(=O)N[C@@H](Cc1c[nH]c2ccccc12)C(=O)O [Glycine-tryptophan, glycine-tryptophan] (H-Gly-Trp-OH)
b. CSCC[C@H](NC(=O)[C@@H](N)Cc1c[nH]c2ccccc12)C(=O)O [Tryptophan-methionine, tryptophan-methionine] (H-Trp-Met-OH)
[in] Smaller The contribution rate in KATSUOBUSHI peptide value, a vs b ? Label of pick, please.
[out] b

I. NC(=O)CC[C@H](N)C(=O)N[C@@H](Cc1c[nH]c2ccccc12)C(=O)O [Glutamine-tryptophan, glutamine-tryptophan] (H-Gln-Trp-OH; N-terminus and C-terminus assumed)
II. N[C@@H](CO)C(=O)N[C@@H](Cc1c[nH]c2ccccc12)C(=O)O [Serine-tryptophan, serine-tryptophan] (H-Ser-Trp-OH; N-terminus and C-terminus assumed)
III. CC[C@H](C)[C@H](N)C(=O)N[C@@H](Cc1c[nH]c2ccccc12)C(=O)O
IV. CSCC[C@H](N)C(=O)N[C@@H](Cc1c[nH]c2ccccc12)C(=O)O [Methionine-tryptophan, methionine-tryptophan] (H-Met-Trp-OH; N-terminus and C-terminus assumed)
[in] Returns the items ordered by The contribution rate in KATSUOBUSHI peptide, from maximum to minimum. # list labels per requested ordering
[out] III, IV, II, I

====

Target: angiotensin converting enzyme (ACE) (Oryctolagus cuniculus)
Construct: resulting supernatant was purified with hydroxyapatite to obtain 1 unit/mg protein of angiotensin converting enzyme liquid; tissue Sigma Co., Ltd. (alternative source); host or cells: rabbit lung (acetone powder extract purified with hydroxyapatite)
Assay: ACE inhibitory activity (Test Example 1, Cheung and Cushman's method, hippuryl histidyl leucine substrate)
Assay type: biochemical, rabbit
Conditions: Table 30, dipeptides of the invention and other dipeptides; read-out: ACE inhibitory value IC50
Where a SMILES comes first, the peptide text is derived from it.
MEASURED_METRIC: IC50 (µM)

A. CC[C@H](C)[C@H](N)C(=O)N[C@@H](Cc1ccccc1)C(=O)O [Isoleucine-phenylalanine, reference compound] (H-Ile-Phe-OH; N-terminus and C-terminus assumed)
B. CC(C)[C@H](N)C(=O)N1CCC[C@H]1C(=O)O [Valine-proline, reference compound] (H-Val-Pro-OH)
[in] Could you tell me which of A and B has the lower IC50 reading? // return label of chosen record
[out] B

====

Molecular target: angiotensin converting enzyme (ACE) (Oryctolagus cuniculus)
Construct: resulting supernatant was purified with hydroxyapatite to obtain 1 unit/mg protein of angiotensin converting enzyme liquid; tissue Sigma Co., Ltd. (alternative source); host or cells: rabbit lung (acetone powder extract purified with hydroxyapatite)
Sequence (P12822 34-1310): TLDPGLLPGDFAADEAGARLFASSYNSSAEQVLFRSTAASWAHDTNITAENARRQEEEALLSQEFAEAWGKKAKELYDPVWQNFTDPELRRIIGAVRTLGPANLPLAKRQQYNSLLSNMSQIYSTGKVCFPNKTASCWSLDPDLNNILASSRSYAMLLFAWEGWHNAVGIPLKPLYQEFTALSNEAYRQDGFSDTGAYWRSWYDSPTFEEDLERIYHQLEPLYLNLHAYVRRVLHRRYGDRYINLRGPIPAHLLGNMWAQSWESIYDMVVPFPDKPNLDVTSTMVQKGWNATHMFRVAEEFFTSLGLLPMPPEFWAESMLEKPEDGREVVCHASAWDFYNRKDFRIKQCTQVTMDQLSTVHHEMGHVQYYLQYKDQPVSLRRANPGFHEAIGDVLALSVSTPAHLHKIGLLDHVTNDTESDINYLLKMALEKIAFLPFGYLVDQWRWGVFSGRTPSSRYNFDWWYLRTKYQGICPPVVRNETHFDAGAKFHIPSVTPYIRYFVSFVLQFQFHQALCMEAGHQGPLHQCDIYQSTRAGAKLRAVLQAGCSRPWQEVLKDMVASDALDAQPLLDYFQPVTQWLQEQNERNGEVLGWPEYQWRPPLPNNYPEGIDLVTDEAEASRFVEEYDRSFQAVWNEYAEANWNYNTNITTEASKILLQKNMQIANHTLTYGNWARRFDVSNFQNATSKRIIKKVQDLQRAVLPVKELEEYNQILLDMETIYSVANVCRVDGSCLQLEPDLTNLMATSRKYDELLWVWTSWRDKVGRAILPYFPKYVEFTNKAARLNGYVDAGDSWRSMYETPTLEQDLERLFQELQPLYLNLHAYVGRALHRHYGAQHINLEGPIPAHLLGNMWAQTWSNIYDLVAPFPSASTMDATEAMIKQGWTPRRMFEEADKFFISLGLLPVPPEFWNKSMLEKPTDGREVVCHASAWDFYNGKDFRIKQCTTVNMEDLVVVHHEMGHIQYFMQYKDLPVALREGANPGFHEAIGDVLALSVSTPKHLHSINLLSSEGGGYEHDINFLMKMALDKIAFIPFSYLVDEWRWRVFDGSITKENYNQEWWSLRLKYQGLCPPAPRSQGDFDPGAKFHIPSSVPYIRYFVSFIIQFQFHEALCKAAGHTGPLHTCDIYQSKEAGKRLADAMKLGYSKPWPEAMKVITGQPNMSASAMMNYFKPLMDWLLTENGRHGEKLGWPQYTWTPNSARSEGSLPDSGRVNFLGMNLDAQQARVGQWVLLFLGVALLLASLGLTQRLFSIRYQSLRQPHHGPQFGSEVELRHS
Assay: ACE inhibitory activity (Test Example 1, Cheung and Cushman's method, hippuryl histidyl leucine substrate)
Format: biochemical, rabbit
Details: isolated peptides, Table 11; read-out: ACE inhibitory activity (IC50: μM)
Where a SMILES comes first, the peptide text is derived from it.
MEASURED_METRIC: IC50 (µM)

N[C@@H](CO)C(=O)N[C@@H](Cc1c[nH]c2ccccc12)C(=O)O [Serine-tryptophan, serine-tryptophan] (H-Ser-Trp-OH; N-terminus and C-terminus assumed): 22.1
NC(=O)CC[C@H](N)C(=O)N[C@@H](Cc1c[nH]c2ccccc12)C(=O)O [Glutamine-tryptophan, glutamine-tryptophan] (H-Gln-Trp-OH; N-terminus and C-terminus assumed): 32.6

P. NCC(=O)N[C@@H](Cc1c[nH]c2ccccc12)C(=O)O [Glycine-tryptophan, glycine-tryptophan] (H-Gly-Trp-OH)
Q. C[C@H](N)C(=O)N[C@@H](Cc1c[nH]c2ccccc12)C(=O)O [Alanine-tryptophan, alanine-tryptophan] (H-Ala-Trp-OH; N-terminus and C-terminus assumed)
[in] Two entries are listed, P and Q . Which one carries the higher IC50? API: response body contains the label of the selected item.
[out] P
(P: 30 µM, Q: 10 µM)

All values here come from patent US20150183822A1.
